ASSAY COMMENT: Antineuroinflammatory activity in mouse BV2 cells assessed as inhibition of LPS-induced NO production incubated for 4 hrs followed by LPS stimulation for 24 hrs by Griess assay
Assay type: functional, cell-based
MEASUREMENT SETUP: BV-2
IC50 reference
MEASUREMENT TYPE: IC50 (µM)

[[record]]
smiles_representation = "C[C@@H]1O[C@@H](Oc2c(-c3ccc(O)c(O)c3)oc3cc(O)cc(O)c3c2=O)[C@H](O[C@@H]2O[C@H](COC(=O)[C@H]3[C@H](C(=O)OC[C@H]4O[C@@H](O[C@H]5[C@H](Oc6c(-c7ccc(O)c(O)c7)oc7cc(O)cc(O)c7c6=O)O[C@@H](C)[C@H](O)[C@H]5O)[C@H](O)[C@@H](O)[C@@H]4O)[C@@H](c4ccc(O)cc4)[C@@H]3c3ccc(O)cc3)[C@@H](O)[C@H](O)[C@H]2O)[C@H](O)[C@H]1O"
relation_symbol = "="
recorded_value = 2.91

[[record]]
smiles_representation = "C[C@@H]1O[C@@H](Oc2c(-c3ccc(O)cc3)oc3cc(O)cc(O)c3c2=O)[C@H](O[C@@H]2O[C@H](COC(=O)[C@H]3[C@H](c4ccc(O)cc4)[C@@H](C(=O)OC[C@H]4O[C@@H](O[C@H]5[C@H](Oc6c(-c7ccc(O)cc7)oc7cc(O)cc(O)c7c6=O)O[C@@H](C)[C@H](O)[C@H]5O)[C@H](O)[C@@H](O)[C@@H]4O)[C@@H]3c3ccc(O)cc3)[C@@H](O)[C@H](O)[C@H]2O)[C@H](O)[C@H]1O"
relation_symbol = "="
recorded_value = 17.2

[[record]]
smiles_representation = "C[C@@H]1O[C@@H](Oc2c(-c3ccc(O)c(O)c3)oc3cc(O)cc(O)c3c2=O)[C@H](O[C@@H]2O[C@H](COC(=O)[C@@H]3[C@H](C(=O)OC[C@H]4O[C@@H](O[C@H]5[C@H](Oc6c(-c7ccc(O)c(O)c7)oc7cc(O)cc(O)c7c6=O)O[C@@H](C)[C@H](O)[C@H]5O)[C@H](O)[C@@H](O)[C@@H]4O)[C@@H](c4ccc(O)cc4)[C@H]3c3ccc(O)cc3)[C@@H](O)[C@H](O)[C@H]2O)[C@H](O)[C@H]1O"
relation_symbol = ">"
recorded_value = 100

[[record]]
smiles_representation = "C[C@@H]1O[C@@H](Oc2c(-c3ccc(O)cc3)oc3cc(O)cc(O)c3c2=O)[C@H](O[C@@H]2O[C@H](COC(=O)[C@@H]3[C@H](C(=O)OC[C@H]4O[C@@H](O[C@H]5[C@H](Oc6c(-c7ccc(O)cc7)oc7cc(O)cc(O)c7c6=O)O[C@@H](C)[C@H](O)[C@H]5O)[C@H](O)[C@@H](O)[C@@H]4O)[C@@H](c4ccc(O)cc4)[C@H]3c3ccc(O)cc3)[C@@H](O)[C@H](O)[C@H]2O)[C@H](O)[C@H]1O"
relation_symbol = ">"
recorded_value = 100


====

ASSAY COMMENT: Antineuroinflammatory activity in mouse BV2 cells assessed as inhibition of LPS-induced NO production incubated for 4 hrs followed by LPS stimulation for 24 hrs by Griess assay
Assay type: functional, cell-based
MEASUREMENT SETUP: BV-2
Let's look at some compounds and their measured IC50.
MEASUREMENT TYPE: IC50

[[record]]
smiles_representation = "C[C@@H]1O[C@@H](Oc2c(-c3ccc(O)cc3)oc3cc(O)cc(O)c3c2=O)[C@H](O[C@@H]2O[C@H](COC(=O)[C@H]3[C@H](C(=O)OC[C@H]4O[C@@H](O[C@H]5[C@H](Oc6c(-c7ccc(O)cc7)oc7cc(O)cc(O)c7c6=O)O[C@@H](C)[C@H](O)[C@H]5O)[C@H](O)[C@@H](O)[C@@H]4O)[C@@H](c4ccc(O)cc4)[C@@H]3c3ccc(O)cc3)[C@@H](O)[C@H](O)[C@H]2O)[C@H](O)[C@H]1O"
measurement_type = "IC50"
recorded_value = "> 100 µM"

[[record]]
smiles_representation = "C[C@@H]1O[C@@H](Oc2c(-c3ccc(O)cc3)oc3cc(O)cc(O)c3c2=O)[C@H](O[C@@H]2O[C@H](COC(=O)[C@H]3[C@H](C(=O)OC[C@H]4O[C@@H](O[C@H]5[C@H](Oc6c(-c7ccc(O)c(O)c7)oc7cc(O)cc(O)c7c6=O)O[C@@H](C)[C@H](O)[C@H]5O)[C@H](O)[C@@H](O)[C@@H]4O)[C@@H](c4ccc(O)cc4)[C@@H]3c3ccc(O)cc3)[C@@H](O)[C@H](O)[C@H]2O)[C@H](O)[C@H]1O"
measurement_type = "IC50"
recorded_value = "> 100 µM"


These data points were gathered from ChEMBL document CHEMBL3853288.
